- protocol-text: qHTS of pediatric cancer cell lines to identify multiple opportunities for drug repurposing: Confirmatory screen for NB1643 cells (AID 1347109); further: nearly all actives have a fitted effect of over 45% in size
- particulars: NB1643 neuroblastoma cell viability; series mostly up to 45.9 µM
Records with an inconclusive call do not appear. Active and inactive are the calls of the source. The call rests on the fitted dose curve; in most records, active means well fitted cell-killing curve with a large enough effect; inconclusive means small, poorly fitted or top-dose-only effect, or effect the other way; inactive means no such curve, though single readings can be large or run the other way.
Labels: true for active, false for inactive

>>> assigned_category("COc1c(OCCCN2CCOCC2)ccc2c3n(c(=NC(=O)c4cnc(N)nc4)nc12)CCN3")
"true"
>>> assigned_category("Cc1ccc(NC(=O)C2(c3ccc4c(c3)OC(F)(F)O4)CC2)nc1-c1cccc(C(=O)O)c1")
"false"
>>> assigned_category("Nc1ncnc2c1c(-c1cnc3[nH]ccc3c1)nn2C1CCCC1")
"true"
>>> assigned_category("CC(C)(C)c1cc(NC(=O)Nc2ccc(-c3cn4c(n3)sc3cc(OCCN5CCOCC5)ccc34)cc2)no1")
"true"
>>> assigned_category("CC(C)[C@H](C(=O)Nc1ccc(C(=O)NO)cc1)c1ccccc1")
"true"
>>> assigned_category("O=C(C=Cc1cccnc1)NCCCCC1CCN(C(=O)c2ccccc2)CC1")
"false"
>>> assigned_category("Cc1cc(Nc2cc(NC(=O)c3c(Cl)cccc3Cl)ccn2)nc(N)n1")
"true"
>>> assigned_category("CC(C)(C)OC(=O)Nc1ccc(-c2cc(C(=O)NCCCCCCC(=O)NO)no2)cc1")
"true"
>>> assigned_category("C=CC(=O)Nc1cccc(Oc2nc(Nc3ccc(N4CCN(C)CC4)cc3OC)ncc2Cl)c1")
"true"
>>> assigned_category("CN(C)Cc1c(C(=O)NCCOc2ccc(C(=O)NO)cc2)oc2ccccc12")
"true"
>>> assigned_category("CNC(=O)c1c(F)cccc1Nc1nc(Nc2cc3c(cc2OC)CCN3C(=O)CN(C)C)nc2[nH]ccc12")
"true"
>>> assigned_category("CN(C)CCCN=c1c2ccccc2n(C)c2[nH]c(=O)n(C)c(=O)c12")
"true"
>>> assigned_category("COc1cc(=C2C=c3ccccc3=N2)[nH]c1=Cc1[nH]c(C)cc1C")
"true"
>>> assigned_category("Cc1[nH]nc2ccc(-c3cncc(OC[C@@H](N)Cc4ccccc4)c3)cc12")
"true"
>>> assigned_category("Cn1c2ccccc2c2c3c(c4c5ccccc5n(CCC#N)c4c21)CNC3=O")
"true"
>>> assigned_category("COc1cc2nccc(Oc3ccc(NC(=O)C4(C(=O)Nc5ccc(F)cc5)CC4)cc3)c2cc1OC")
"false"
>>> assigned_category("CC(NCc1ccc2c(c1)nc(NC(=O)c1ccc(-c3cn[nH]c3)s1)n2CC(C)(C)O)C(C)(C)C (centres undefined)")
"true"
>>> assigned_category("O=C(Nc1cc(C(F)(F)F)cc(C(F)(F)F)c1)c1cc(Cl)ccc1O")
"true"
>>> assigned_category("CC(=O)OCC(=O)[C@@]1(O)[C@H](C)C[C@H]2[C@@H]3C=C(C)C4=Cc5c(cnn5-c5ccccc5)C[C@]4(C)[C@@H]3[C@@H](O)C[C@@]21C")
"true"

----------
In this section, each of the molecules is paired with its reported activity change, negative = inhibition.
- protocol-text: qHTS assay to identify inhibitors of the type 1 interferon - major histocompatibility complex class I in skeletal muscle: Counter screen cell viability and HiBit confirmation (AID 1347412); further: on the % scale 0 is the no-effect control and ±100 the full control effect; nearly all actives have a fitted effect of over 60% in size
- particulars: iHSKM muscle cells + IFN-b, HiBiT or CellTiter-Glo, 24 h; Viability; at 45.9 µM (top of the series)
Inconclusive results are not listed.
value-kind: activity change, negative = inhibition (%)

>>> measured_value("Nc1nc(Nc2ccc(S(N)(=O)=O)cc2)nn1C(=O)c1c(F)cccc1F")
19
>>> measured_value("Nc1nccc(Oc2ccc(NC(=O)c3c[nH]cc(-c4ccc(F)cc4)c3=O)cc2F)c1Cl")
1.85
>>> measured_value("COc1cc(C(=O)N2CCC(N3CCN(C)CC3)CC2)ccc1Nc1ncc2c(n1)N(C)c1ccccc1C(=O)N2C")
-1.11
>>> measured_value("C[C@@]12O[C@@H](C[C@]1(O)CO)n1c3ccccc3c3c4c(c5c6ccccc6n2c5c31)CNC4=O")
-0.759
>>> measured_value("C#Cc1cccc(Nc2ncnc3cc(OC)c(OCCCCCCC(=O)NO)cc23)c1")
-17
>>> measured_value("Cc1ccc(-c2ncn(-c3ccc(Nc4nccc(-c5cccc(N6CCOCC6)c5)n4)cc3)n2)cn1")
-8.69
>>> measured_value("CC(C)c1nn(-c2c(Cl)cccc2Cl)c2nc(Cc3ccc(OCCO)cc3)[nH]c(=O)c12")
27.7
>>> measured_value("Cc1nc(Nc2n[nH]c3c2CN(C(=O)N[C@H](CN(C)C)c2ccccc2)C3(C)C)c2sccc2n1")
5.01
>>> measured_value("Cc1cc(C(=O)N2CCN(c3cccc(Cl)c3)CC2)n(-c2ccccc2)n1")
-19.8

Source of measurements: PubChem BioAssay (NCATS)
